- System: KM-20L2
- runDescription: NCI tumour cell line growth inhibition, 48 h
The source made the active and inactive calls. Cut-off read from the data, not from the text of the source: active = GI50 up to about 1.1 µM and inactive = higher.
The entries below are paired with their reported GI50.

Known GI50 results, listed for orientation:
O=c1oc2c3ccc4ccccc4c3n(CCN3CCCCC3)c2c2ccccc12; > 61 µM (inactive)
CCCCc1c2c(nc3c1CCCC3=O)CCCC2; 20 µM (inactive)

In the following, a different molecule is considered.
The molecule identified as "Cc1ccccc1NC(=O)CSc1nnc(-c2ccc(/N=C\c3ccc(Cl)cc3)cc2)o1" registered its GI50 at > 100 µM (inactive)

* * *

Below, each entry is listed alongside its reported GI50.
- Tested on: KM12
- runDescription: NCI tumour cell line growth inhibition, 48 h
Active and inactive are the calls of the source. Cut-off read from the data, not from the text of the source: active = GI50 up to about 1.1 µM and inactive = higher.

Example cases with answers are listed next.
C/C=C(\C)c1cc(O)c(C)c2c1Oc1cc(O)c(Cl)c(C)c1C(=O)O2; 20.9 µM (inactive)
COc1ccc(OC)c2c(C(C)=O)cccc12; > 100 µM (inactive)
Cc1cc(C)n(C2OC(CO)C(O)C(O)C2O)c(=S)c1C#N (stereo unspecified); > 100 µM (inactive)
CCCCC#C[I+]c1ccccc1; 14.2 µM (inactive)
CN(C)c1ccc(/C=C/C(=O)O)cc1; > 100 µM (inactive)

In plain terms, O=C1C(C(O)(C(F)(F)Cl)C(F)(F)Cl)CCCC1C(O)(C(F)(F)Cl)C(F)(F)Cl (stereo unspecified) has a documented GI50 of > 10 µM (inactive)

* * *

Listing: GI50 of selected molecules
- Test system: HOP-62
- runDescription: NCI tumour cell line growth inhibition, 48 h
Calls of active or inactive are those of the source. Cut-off read from the data, not from the text of the source: active = GI50 up to about 1.1 µM and inactive = higher.

# example entries with known answers
CC1(C)CC(=O)c2c(nc3ccc4ccccc4c3c2-c2ccc(NC(=O)CCCC(=O)Nc3ccc(-c4c5c(nc6ccc7ccccc7c46)CC(C)(C)CC5=O)cc3)cc2)C1; > 100 µM (inactive)
COc1cc(OC)c2c(c1)C(=O)C(CC1(C)OCCCO1)=CC2=O; 19.1 µM (inactive)
COc1cc(Nc2cnc3cc(F)c(F)cc3n2)cc(OC)c1OC; 91.8 µM (inactive)
C#CCCCCC#CC1CCCC1C1=CC(=O)c2ccccc21 (stereo unspecified); 7.36 µM (inactive)
C=C1CCc2occ(C)c2C2C1C1=C(CC(C)C1=O)C1OC12C (stereo unspecified); > 100 µM (inactive)

Sample "Cc1cc(OCc2nn(CN3CCN(C)CC3)c(=S)n2/N=C/c2ccc(-c3ccc(Cl)cc3Cl)o2)ccc1Cl" , system: HOP-62. Its GI50 is 39.3 µM (inactive)

* * *

- System: LOX IMVI
- runDescription: NCI tumour cell line growth inhibition, 48 h
Activity calls are given as the source filed them. Cut-off read from the data, not from the text of the source: active = GI50 up to about 1.1 µM and inactive = higher.
measurementKind: GI50

Field: example entries. Status: answers known.
Cc1cc(C)n(CCNCCn2nc(C)cc2C)n1; > 100 µM (inactive)
CCNC(=O)O/N=C1/C=C2CC[C@@H]3C(CC[C@@]4(C)C3CC[C@@H]4OC(=O)NCC)[C@@]2(C)CC1 (stereo partly specified); 3.32 µM (inactive)
Cc1nc(Nc2ccccc2)sc1C(=O)NNC(N)=O; > 100 µM (inactive)

GI50 reading for "Cc1nc(=O)n2c(c1C(=O)Nc1ccc(Cl)cc1)NCCC2" : > 100 µM (inactive)

// field: GI50; key: "CCOC(=O)C(=[N+]=[N-])C(=O)Nc1nn2nnnc2c2ccccc12" ; value = > 100 µM (inactive)

GET /value?item= O=C1NP23(OCCO2)Oc2ccccc2C3(C(F)(F)F)O1 (stereo unspecified) &field=GI50 returns > 100 µM (inactive)

* * *

- Tested on: MCF7
- runDescription: NCI tumour cell line growth inhibition, 48 h
Calls of active or inactive are those of the source. Cut-off read from the data, not from the text of the source: active = GI50 up to about 1.1 µM and inactive = higher.
measurementKind: GI50

Recorded GI50 (compound "N#C/C(=C\c1ccccc1)C(=O)Nc1nnc(-c2ccccc2)o1" ): 50.9 µM (inactive)

Lab book: GI50 of "CC1=C(C(=O)Nc2ccccc2)C2(CCCCC2)C(C#N)=C(SCC(=O)Nc2ccc(Br)cc2)N1" noted as 4.51 µM (inactive)

The recorded GI50 for "O=[N+]([O-])c1cccc(-c2nc(-c3ccccc3)c(-c3ccccc3)[nH]2)c1" is > 100 µM (inactive)

Quick note, GI50 for O[C@]12C=C(c3nccc4c3[nH]c3ccccc34)[C@@H]3CCN(CCCC/C=C\CC1)C[C@@]31CC3/C=C\CCCCN3[C@H]12 (stereo not given in full) landed at 0.478 µM (active)

Value of GI50 reported for the compound "O=S(=O)(Nc1nc2ccccc2nc1Nc1ccc2ccccc2c1)c1ccccc1" is 10.9 µM (inactive)

* * *

Measured GI50, listed per entry.
- Tested on: HCC 2998
- runDescription: NCI tumour cell line growth inhibition, 48 h
Active and inactive are the calls of the source. Rule as the data show it: active = GI50 up to about 1.1 µM and inactive = higher.

COC(=O)c1ccc(/N=N/N(C)CO)cc1; > 100 µM (inactive)
COC(=O)Cn1c(=O)oc2nc(-c3ccccc3)cc(C(F)(F)F)c21; > 100 µM (inactive)
Cc1ccc(C[N+](C)(C)N)cc1C; > 10 µM (inactive)
Cc1[nH]c2ccccc2c1CC/C(=N\Nc1ccccc1)c1ccccc1; > 100 µM (inactive)
Cc1c(-c2ccc(-c3ccccc3F)cc2)nc2ccc(F)cc2c1C(=O)O [BREQUINAR SODIUM]; 9.62 µM (inactive)
COc1cc(OC)c2c(c1)C(=O)C(CC1(C)OCCCO1)=CC2=O; 17.9 µM (inactive)

// GI50 lookup, compound = C=CCC1[C@@H](C(C)(C)C(C(C)=O)C(=O)C(=O)OC)OC(C(C)(C)C)N1C(=O)OC (some centres not stated) , result: > 100 µM (inactive)

Summary for this compound, "Cc1ccc(/N=N/c2ccc(O)c(CN(C)C)c2)cc1C" : GI50 is 16.4 µM (inactive)

Per the record, "C/C(=N\c1cc(Cl)cc(Cl)c1)c1ccncc1" has GI50 of > 100 µM (inactive)

* * *

- Test system: KM12
- runDescription: NCI tumour cell line growth inhibition, 48 h
The source made the active and inactive calls. Rule as the data show it: active = GI50 up to about 1.1 µM and inactive = higher.
Please state which outcome applies, choosing from active, inactive

O=c1[nH]cc(COCC(F)(F)C(F)(F)C(F)(F)C(F)F)c(=O)[nH]1; inactive

# outcome recorded in this test, key = "Cc1ccc(N(C)S(=O)(=O)c2ccccc2)cc1" inactive

Recorded test outcome, item COc1ccc(N[S+]([O-])C2CCCCC2)cc1 (stereo not drawn) inactive

What did this assay record as the result for O=C(O)c1c(CC(Cc2ccc3c(c2)CCC3)C(=O)O)ccc2c1CCC2 (stereo not drawn) ? inactive

For "COc1ccc(O)c(/C=N/CCC/N=C/c2cc(OC)ccc2O)c1" , which call appears in the assay record? inactive

Fill in: this test's call for CCOC(=O)[C@@H]1ON2O[C@@H](OC3CCCCC3c3ccccc3)C[C@H]3OC(=O)[C@@H]1C32 (stereo partly drawn) is ___ inactive

Called result for "O=P1(Cc2ccccc2)N(Cc2ccccc2)[C@@H]2CCCC[C@H]2N1Cc1ccccc1" inactive

Which outcome was assigned to CC1OC(OC2C(O[C@H]3CC[C@@]4(C)C(=CC[C@H]5[C@@H]6C[C@@H]7O[C@]8(CC[C@@H](CO)CO8)[C@@H](C)[C@@H]7[C@@]6(C)CC[C@@H]54)C3)OC(CO)C(O)C2OC2OC(CO)C(O)C(O)C2O)C(O)C(O)C1O (stereo partly drawn) in this test? inactive

Write down the call the test reported for this compound. Item: "CCN(CCCOc1ccccc1)CCN(CC)CCCOc1ccccc1" inactive

Which result was noted for this compound in the test: "N/C(=N\Nc1cccc(Cl)c1)c1cccnc1" inactive

Field: outcome | Entry: "CC[C@](C)(O)C(=O)O[C@H]1C(=O)O[C@@H]2C[C@H]3C(C)=CC(=O)[C@@H](O)[C@]3(C)[C@H]3[C@@]4(O)OC[C@]32[C@@H]1[C@@H](C)[C@H]4O" active

Hi, do you know how CC1OC(O)CC(N(C)C)C1O.CC1OC(O)CCC1O.CCC1CC(O)c2c(O)c3c(c(O)c2C1O)C(=O)c1cccc(O)c1C3=O (stereo not drawn) came out in this test? active

* * *

- Tested on: HCT-116
- runDescription: NCI tumour cell line growth inhibition, 48 h
Structures can show the parent of a compound that is named as a salt. Active and inactive are the calls of the source. Rule as the data show it: active = GI50 up to about 1.1 µM and inactive = higher.
Thanks in advance; please answer with one of these: active, inactive

Example entries and their recorded answers appear below.
CC[C@](C)(O)C(=O)O[C@H]1C(=O)O[C@@H]2C[C@H]3C(C)=CC(=O)[C@@H](O)[C@]3(C)[C@H]3[C@@]4(O)OC[C@]32[C@@H]1[C@@H](C)[C@H]4O [GLAUCARUBINONE]; active
CC(=O)OCC1(CNc2nc(N)ncc2C#N)CC(CCc2ccccc2)C1 (stereo not given); inactive
N#CCCSC1SC(=C2SC3=C(SCCS3)S2)SC1SCCC#N (stereo not given); inactive
CN(C)CCOC(=O)COc1ccc(Cl)cc1 [CENTROPHENOXINE HYDROCHLORIDE]; inactive
Fc1ccc(Nc2nc(Cl)c3nc[nH]c3n2)cc1Cl; inactive
CCCCCCCCCCOC1C(C(C)OCCCN(C)C)OC2OC3(CCCCC3)OC21 (stereo not given); inactive
COc1cccc2nc3ccccc3nc12; inactive
CC1CC2=C(C1)C(C1(C)C(=O)CC3C(C1=O)C3(C)C)C(C)C2=O (stereo not given); inactive
COc1cc(C2C3=C(COC3=O)Oc3cc4c(cc32)OCO4)ccc1O (stereo not given); active

For this compound, state the assay outcome: "Cn1c(=O)nc2n(-c3ccc(Br)cc3)c3ccccc3nc-2c1=O" inactive
